- experimental_target: TYK2 (Homo sapiens, UniProt P29597)
- Sequence (P29597 whole entry): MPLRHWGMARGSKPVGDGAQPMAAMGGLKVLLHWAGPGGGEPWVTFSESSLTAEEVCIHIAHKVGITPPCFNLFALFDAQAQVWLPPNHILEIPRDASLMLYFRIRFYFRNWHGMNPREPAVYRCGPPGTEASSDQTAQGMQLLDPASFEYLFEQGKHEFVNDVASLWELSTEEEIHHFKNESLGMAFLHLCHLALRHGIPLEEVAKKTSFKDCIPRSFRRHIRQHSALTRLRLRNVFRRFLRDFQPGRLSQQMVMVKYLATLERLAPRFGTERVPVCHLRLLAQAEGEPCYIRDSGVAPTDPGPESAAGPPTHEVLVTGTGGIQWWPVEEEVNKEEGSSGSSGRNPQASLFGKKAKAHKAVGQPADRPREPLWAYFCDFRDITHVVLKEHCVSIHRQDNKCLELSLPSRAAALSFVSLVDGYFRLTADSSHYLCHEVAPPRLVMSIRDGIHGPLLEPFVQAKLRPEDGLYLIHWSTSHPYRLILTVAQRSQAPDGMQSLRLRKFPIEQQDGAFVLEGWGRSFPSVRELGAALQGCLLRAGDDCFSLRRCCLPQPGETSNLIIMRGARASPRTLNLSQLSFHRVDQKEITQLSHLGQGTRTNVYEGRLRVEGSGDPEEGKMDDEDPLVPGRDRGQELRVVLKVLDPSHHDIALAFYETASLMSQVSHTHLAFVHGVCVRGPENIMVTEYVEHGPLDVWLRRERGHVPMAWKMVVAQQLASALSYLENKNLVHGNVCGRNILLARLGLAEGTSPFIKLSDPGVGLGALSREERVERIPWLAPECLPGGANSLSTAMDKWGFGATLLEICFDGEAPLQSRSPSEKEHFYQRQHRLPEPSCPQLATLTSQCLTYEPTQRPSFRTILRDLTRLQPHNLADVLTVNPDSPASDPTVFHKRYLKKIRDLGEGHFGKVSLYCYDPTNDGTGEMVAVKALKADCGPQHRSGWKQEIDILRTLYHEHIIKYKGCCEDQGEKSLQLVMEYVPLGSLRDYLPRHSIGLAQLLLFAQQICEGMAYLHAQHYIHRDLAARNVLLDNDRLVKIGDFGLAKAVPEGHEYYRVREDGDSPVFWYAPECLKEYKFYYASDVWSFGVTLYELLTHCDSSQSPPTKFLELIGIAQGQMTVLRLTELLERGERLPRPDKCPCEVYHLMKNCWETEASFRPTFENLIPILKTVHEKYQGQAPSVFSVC
- method_notes: TYK2 degradation MSD assay in human PBMC cells
- Type: cell-based
- Parameters: endogenous in cells; host or cells: human PBMC
- condition_parameters: 4 to 24 hours incubation, read-out: TYK2 MSD DC50 rating in human PBMC
- Experimental: Example 3. TYK2 Degradation MSD Assay in EBV-B, OCI-LY10, and Human PBMC Cells Degradation of TYK2 in cells was quantitatively measured using Meso Scale Discovery (MSD) technology. […] The assay plates were then incubated at room temperature for 1 hour, washed 3 times with 150 μl/well TBST buffer, and 150 μl/well MSD reading buffer (MSD, R92TC-2) were added. The plates were then analyzed by an MSD reader. […]
Catalogue of molecules with associated DC50

| molecule | DC50 |
| --- | --- |
| CNc1cc(Nc2cccn(-c3cc(C(=O)NCCCCCCCCc4ccc5c(c4)n(C)c(=O)n5C4CCC(=O)NC4=O)ccn3)c2=O)nn2c(C(=O)N[C@@H]3C[C@@H]3F)cnc12 (some centres unmarked) | < 1 nM |
| CNc1cc(N2CCOc3c(-c4ccc(CN5CCN(c6ccc(-c7ccc8c(c7)n(C)c(=O)n8C7CCC(=O)NC7=O)cc6)CC5)cn4)cccc32)nn2c(C(=O)N[C@@H]3C[C@@H]3F)cnc12 (some centres unmarked) | > 100 nM |
| CNc1cc(Nc2cccn(-c3ccc(C(=O)N(C)CCCOC4CCN(c5ccc6c(c5)n(C)c(=O)n6C5CCC(=O)NC5=O)CC4)cn3)c2=O)nn2c(C(=O)N[C@@H]3C[C@@H]3F)cnc12 (some centres unmarked) | > 100 nM |
| CNc1cc(Nc2cccn(-c3ccc(C(=O)N4CCC5(CCCN(CCc6ccc7c(c6)n(C)c(=O)n7C6CCC(=O)NC6=O)C5)C4)cn3)c2=O)nn2c(C(=O)N[C@@H]3C[C@@H]3F)cnc12 (some centres unmarked) | > 100 nM |
| CNC(=O)c1cnc(Nc2ccc(CN3CCC(c4ccc5c(c4)n(C)c(=O)n5C4CCC(=O)NC4=O)CC3)cn2)cc1Nc1cccc(-c2ncc(F)cn2)c1OC (centres unmarked) | > 100 nM |

---

- experimental_target: TYK2 (Homo sapiens, UniProt P29597)
- method_notes: TYK2 degradation MSD assay in human PBMC cells
- Type: cell-based
- Set-up: endogenous in cells; host or cells: human PBMC
- condition_parameters: 4 to 24 hours incubation, read-out: TYK2 MSD DC50 rating in human PBMC
- Method: Example 3. TYK2 Degradation MSD Assay in EBV-B, OCI-LY10, and Human PBMC Cells Degradation of TYK2 in cells was quantitatively measured using Meso Scale Discovery (MSD) technology. […] The assay plates were then incubated at room temperature for 1 hour, washed 3 times with 150 μl/well TBST buffer, and 150 μl/well MSD reading buffer (MSD, R92TC-2) were added. The plates were then analyzed by an MSD reader. […]
measurement_label: DC50

| compound | measurement |
| --- | --- |
| [2H]C([2H])([2H])NC(=O)c1nnc(Nc2ccc(CN3CCN(c4ccc5c(c4)n(C)c(=O)n5C4CCC(=O)NC4=O)CC3)cn2)cc1Nc1cccc(F)c1OC (centres unmarked) | > 100 nM |
| CNc1cc(Nc2cccn(-c3cccc(C(=O)NCCCCCCCCc4cccc5c4n(C)c(=O)n5C4CCC(=O)NC4=O)c3)c2=O)nn2c(C(=O)N[C@@H]3C[C@@H]3F)cnc12 (some centres unmarked) | 10 to 100 nM |
| Cn1c(=O)n(C2CCC(=O)NC2=O)c2ccc(CCCCNC(=O)c3ccccc3Nc3ccc4ncc(C(=O)N[C@@H]5C[C@@H]5F)n4n3)cc21 (some centres unmarked) | > 100 nM |
| CNc1cc(-c2ccc(C(=O)NCCCCCCc3cccc4c3n(C)c(=O)n4C3CCC(=O)NC3=O)cc2)nn2c(C(=O)N[C@@H]3C[C@@H]3F)cnc12 (some centres unmarked) | > 100 nM |
| CNC(=O)c1cnc(Nc2ccc(CN(C)C3CCN(c4cccc5c4n(C)c(=O)n5C4CCC(=O)NC4=O)CC3)cn2)cc1Nc1cccc(-c2ncc(F)cn2)c1OC (centres unmarked) | > 100 nM |

Value source: patent US20250051338A1
